assay: Metabolic stability in rat liver microsomes assessed as half life by LC-MS/MS analysis; type: ADME, Microsome
property.name: half-life (min)

> print(dat)
                  compound.structure.string  property.name  units  result.value
1  Cc1ncc(-c2ccc3nc(NC(=O)C4CC4)sc3c2)cc1NC(=O)OC1CCOCC1      half-life    min            39

###

molecular target: CYP3A4 (Homo sapiens, UniProt P08684); test: Inhibition of CYP3A4 (unknown origin) using midazolam as cocktail probe substrate at 10 uM preincubated for 20 mins followed by substrate addition and measured after 20 mins by LC-MS/MS analysis relative to control; format: ADME; conditions: time 40 min
Sequence (P08684 whole entry): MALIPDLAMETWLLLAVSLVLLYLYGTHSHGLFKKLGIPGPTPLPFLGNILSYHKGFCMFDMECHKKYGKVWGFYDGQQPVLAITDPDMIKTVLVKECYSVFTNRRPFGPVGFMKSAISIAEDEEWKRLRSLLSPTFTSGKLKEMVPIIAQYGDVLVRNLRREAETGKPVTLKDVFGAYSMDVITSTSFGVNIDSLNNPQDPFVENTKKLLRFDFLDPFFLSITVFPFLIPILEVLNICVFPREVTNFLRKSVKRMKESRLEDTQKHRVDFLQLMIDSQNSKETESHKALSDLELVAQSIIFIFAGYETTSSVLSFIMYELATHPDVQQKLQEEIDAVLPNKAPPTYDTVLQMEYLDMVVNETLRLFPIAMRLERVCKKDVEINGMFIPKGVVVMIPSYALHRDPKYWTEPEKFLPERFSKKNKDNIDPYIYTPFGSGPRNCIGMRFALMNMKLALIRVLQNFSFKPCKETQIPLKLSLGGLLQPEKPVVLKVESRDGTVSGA
property.name: inhibition at 20 min, 10 µM (%)

> print(dat)
                  compound.structure.string                property.name  result.value
1  Cc1ncc(-c2ccc3nc(NC(=O)C4CC4)sc3c2)cc1NC(=O)OC1CCOCC1  inhibition at 20 min, 10 µM            17
